Attribution: ChEMBL document CHEMBL4425094

test system: DU-145; experiment: Cytotoxicity against human DU145 cells assessed as cell growth inhibition after 24 hrs by MTT assay; assay type: functional, cell-based; details: DU-145, 24 h
pIC50: −log10 of the molar value.
readout name: pIC50

compound | pIC50
C/C=C/C(=O)CC1c2cc(OCc3cc(C)cc(C)c3)c(OCc3cc(C)cc(C)c3)cc2CCN1C(=O)OC(C)(C)C (stereo not given) | < 4.70

[ask] # pIC50 lookup, item "O=[N+]([O-])c1ccc([C@@H]2C[C@@H](O)C[C@H]3c4cc(OCc5ccccc5)c(OCc5ccccc5)cc4CCN23)cc1"
[reply] < 4.70

[ask] # pIC50 lookup, item "O[C@]1(c2ccccc2)C[C@@H](c2ccccc2)N2CCc3cc(OCc4ccccc4)c(OCc4ccccc4)cc3[C@@H]2C1"
[reply] < 4.70

---

test system: PC-3; test: Cytotoxicity against human PC3 cells assessed as cell growth inhibition after 24 hrs by MTT assay; format: functional, cell-based; details: PC-3, 24 h
In this section we review reported IC50 values for a set of molecules.

Would you please look over these solved cases?
molecule | IC50
Cc1cc(C)cc(COc2cc3c(cc2OCc2cc(C)cc(C)c2)[C@@H]2C[C@](C)(O)C[C@@H](C)N2CC3)c1 | 890 nM
O=C1C[C@@H](c2ccccc2)N2CCc3cc(OCc4ccccc4)c(OCc4ccccc4)cc3[C@@H]2C1 (relative stereo) | > 20000 nM

[ask] # IC50 lookup, item "C[C@@H]1C[C@@H](O)C[C@H]2c3cc(OCc4cc(C(F)(F)F)cc(C(F)(F)F)c4)c(OCc4cc(C(F)(F)F)cc(C(F)(F)F)c4)cc3CCN12"
[reply] 450 nM

[ask] # IC50 lookup, item "C[C@@H]1C[C@@H](O)C[C@H]2c3cc(OCc4ccccc4)c(OCc4ccccc4)cc3CCN12"
[reply] 2810 nM

[ask] # IC50 lookup, item "C[C@@H]1C[C@@H](O)C[C@H]2c3cc(OCc4ccc(Br)cc4)c(OCc4ccc(Br)cc4)cc3CCN12"
[reply] 1240 nM

[ask] # IC50 lookup, item "COc1ccc([C@@H]2C[C@H](O)C[C@H]3c4cc(OCc5cc(C)cc(C)c5)c(OCc5cc(C)cc(C)c5)cc4CCN23)cc1OC"
[reply] > 20000 nM

[ask] # IC50 lookup, item "C[C@@H]1C[C@@](C)(O)C[C@H]2c3cc(OCc4ccc(C(C)(C)C)cc4)c(OCc4ccc(C(C)(C)C)cc4)cc3CCN12"
[reply] 1110 nM

---

In this section we review reported IC50 values for a set of compounds.
test system: MDA-MB-231; test: Cytotoxicity against human MDA-MB-231 cells assessed as cell growth inhibition after 24 hrs by MTT assay; type: functional, cell-based; details: MDA-MB-231, 24 h
Value expressed in µM; do not type the unit.

Would you please look over these solved cases?
smiles structure | output unit | IC50
C[C@@H]1C[C@H](O)C[C@H]2c3cc(OCc4cc(C(F)(F)F)cc(C(F)(F)F)c4)c(OCc4cc(C(F)(F)F)cc(C(F)(F)F)c4)cc3CCN12 | µM | 0.56
Cc1cc(C)cc(COc2cc3c(cc2OCc2cc(C)cc(C)c2)[C@@H]2C[C@](C)(O)C[C@@H](C)N2CC3)c1 | µM | 2.35
CC[C@@H]1C[C@@H](O)C[C@H]2c3cc(OCc4ccccc4)c(OCc4ccccc4)cc3CCN12 | µM | 2.88
COc1ccc([C@@H]2C[C@@H](O)C[C@H]3c4cc(OCc5cc(F)cc(F)c5)c(OCc5cc(F)cc(F)c5)cc4CCN23)cc1OC | µM | 1.3
C[C@@]1(O)C[C@@H](c2ccccc2)N2CCc3cc(OCc4ccccc4)c(OCc4ccccc4)cc3[C@@H]2C1 | µM | 5.48
C[C@@H]1C[C@@H](O)C[C@H]2c3cc(OCc4ccc(C(C)(C)C)cc4)c(OCc4ccc(C(C)(C)C)cc4)cc3CCN12 | µM | 3.25

Here is the next item to consider.
[ask] For the record "C[C@@H]1C[C@@](C)(O)C[C@H]2c3cc(OCc4cccc(F)c4)c(OCc4cccc(F)c4)cc3CCN12" , what value of IC50 is listed for MDA-MB-231?
[reply] 0.59
